Molecular target: Nociceptin receptor (Homo sapiens)
Sequence (P41146 whole entry): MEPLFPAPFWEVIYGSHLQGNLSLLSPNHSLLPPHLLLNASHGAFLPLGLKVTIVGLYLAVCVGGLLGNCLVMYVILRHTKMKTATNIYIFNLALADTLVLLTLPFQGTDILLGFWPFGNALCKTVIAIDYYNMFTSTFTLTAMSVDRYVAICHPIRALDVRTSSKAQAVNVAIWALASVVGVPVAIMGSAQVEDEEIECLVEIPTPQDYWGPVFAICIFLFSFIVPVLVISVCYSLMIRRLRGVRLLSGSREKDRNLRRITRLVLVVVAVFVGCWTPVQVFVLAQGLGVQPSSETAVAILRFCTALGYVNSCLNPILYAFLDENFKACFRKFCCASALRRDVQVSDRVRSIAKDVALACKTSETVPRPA
Test: Agonist activity at NOP (unknown origin) expressed in HEK293 cell membranes co-expressing Gbeta1-RGFP protein assessed as induction of G protein activation incubated for 15 mins by BRET assay
Format: cell-based
Reported metric: EC50 (nM)

1. C[C@H](NC(=O)CNC(=O)[C@@H](NC(=O)[C@H](Cc1ccccc1)NC(=O)CNC(=O)CNC(=O)[C@@H](N)Cc1ccccc1)[C@@H](C)O)C(=O)N[C@@H](CCCNC(=N)N)C(=O)N[C@@H](CCCCN)C(=O)N[C@@H](CO)C(=O)N[C@@H](C)C(=O)N[C@@H](CCCNC(=N)N)C(=O)N[C@@H](CCCCN)C(=O)N[C@@H](CSC1CC(=O)N(CCCC(=O)N[C@@H](CCCCN)C(=O)N[C@@H](CCCCN)C(=O)N[C@@H](CCCCN)C(=O)N[C@@H](CCCCN)C(=O)N[C@@H](CCCCN)C(=O)N[C@@H](CCCCN)C(N)=O)C1=O)C(N)=O (stereo partly specified)    0.0871
